Test: Dissociation constant for formamidine ring
Assay type: physicochemical
quantity kind: pKa

[[record]]
smiles_data = "N#C/N=C/Nc1ccc(-c2c[nH]cn2)cc1"
quantity_kind = "pKa"
value = "< 1"

[[record]]
smiles_data = "FCC/N=C/Nc1ccc(-c2c[nH]cn2)cc1"
quantity_kind = "pKa"
value = 8.12

[[record]]
smiles_data = "FC(F)(F)C/N=C/Nc1ccc(-c2c[nH]cn2)cc1"
quantity_kind = "pKa"
value = 6.14

[[record]]
smiles_data = "FC(F)C/N=C/Nc1ccc(-c2c[nH]cn2)cc1"
quantity_kind = "pKa"
value = 6.6

[[record]]
smiles_data = "CC/N=C/Nc1ccc(-c2c[nH]cn2)cc1"
quantity_kind = "pKa"
value = 8.65


====

Some molecules, each annotated with its measured pKa.
Assay: Dissociation constant for imidazole ring
Type: physicochemical
quantity kind: pKa

[[record]]
smiles_data = "FC(F)C/N=C/Nc1ccc(-c2c[nH]cn2)cc1"
value = 4.54

[[record]]
smiles_data = "FC(F)(F)C/N=C/Nc1ccc(-c2c[nH]cn2)cc1"
value = 4.45

[[record]]
smiles_data = "CC/N=C/Nc1ccc(-c2c[nH]cn2)cc1"
value = 5.57

[[record]]
smiles_data = "FCC/N=C/Nc1ccc(-c2c[nH]cn2)cc1"
value = 5.55

